- condition details: buffer; pH 7.4; 200.0 µM
readout name: log10 of solubility kinetic (log10 of the value in µg/mL)
log10 solubility kinetic, µg/mL

Guide cases for log10 of solubility kinetic, answers given:
query smiles	log10 of solubility kinetic
O=C(NCCc1ccc(Cl)cc1)c1ccc2c(c1)OCO2	0.08
Cc1sc(NC(=O)c2cccnc2)nc1-c1ccccc1	0.04
CC(C)OCc1c(C(=O)Nc2nccs2)oc2ccccc12	0.41

# get_value(readout='log10 of solubility kinetic', item= "Cc1ccccc1CSc1ccc(S(=O)(=O)N2CCCC2)cn1" )
0.49

# get_value(readout='log10 of solubility kinetic', item= "CCC(CC)NC(=O)CO/N=C/c1ccc(Cl)cc1Cl" )
0.48

# get_value(readout='log10 of solubility kinetic', item= "Cc1cc2cc(CNC(=S)NCc3ccccc3)ccc2n1C" )
0.26

# get_value(readout='log10 of solubility kinetic', item= "O=C(Nc1ccccc1)c1ccccc1OS(=O)(=O)c1ccccc1" )
1.68

====

- condition details: buffer; pH 7.4; 200.0 µM
Outcome label depends on solubility kinetic relative to 30 µg/mL: at/above gives rule met, below gives rule not met.

Reference set (5 entries):
query smiles	cat
Cc1ccc2nc(Nc3ccccc3)c(C=O)c(=O)n2c1	rule not met
CN(C(=S)NCCN1CCOCC1)C(c1ccccc1)c1ccccc1	rule met
Cc1cc2ccccn2c1C(=O)c1cccc([N+](=O)[O-])c1	rule not met
CCOc1ncccc1C(=O)Nc1cc(S(=O)(=O)N(CC)CC)ccc1N1CCOCC1	rule not met
O=C(NCCc1ccccc1)C1(S(=O)(=O)c2ccc(Cl)cc2)CC1	rule met

Field: next molecule
Can "CS(=O)(=O)N1CCC(C(=O)Nc2ccc(F)cc2)CC1" be said to have solubility kinetic at or above 30 µg/mL?
rule met

====

- condition details: buffer; pH 7.4; 200.0 µM
Measured solubility kinetic by item

Guide cases for solubility kinetic, answers given:
compound	recorded measurement
CN1CCN(C(=S)NC(=O)c2ccccc2Cl)CC1	> 44.7 µg/mL
O=C(CSc1nc2ccccc2o1)NCC1CCCO1 (configuration not stated)	> 43.9 µg/mL
S=C(NCc1ccccc1)Nc1ccncc1	30 µg/mL
COc1ccc(NC(=O)CN2C(=O)COc3ccc(C)cc32)cc1	3.3 µg/mL
Cc1nc(SCC(N)=O)c(C#N)c(C)c1C	4.4 µg/mL
COc1ccccc1C(=O)NCCC(=O)NCC(c1ccccc1)N(C)C (configuration not stated)	> 55.4 µg/mL
Cc1ccc(C(=O)Nc2cccc3cccnc23)cc1Br	< 0.4 µg/mL
CC12CCC(=O)N1C(C(=O)NCc1ccccc1F)CS2 (configuration not stated)	44.7 µg/mL
COCCN(Cc1ccc(F)cc1)C(=O)c1cc2ccccc2oc1=O	> 53.3 µg/mL
O=C(Nc1ccccc1)NN(C(=O)CCl)c1ccccc1	> 45.6 µg/mL

# get_value(readout='solubility kinetic', item= "CCCn1c(N2CCN(C(=O)/C=C/C(=O)O)CC2)nc2ccccc21" )
> 51.4 µg/mL

# get_value(readout='solubility kinetic', item= "O=C(Cn1cc([N+](=O)[O-])cn1)NC1CCCCCC1" )
> 39.9 µg/mL

====

- condition details: buffer; pH 7.4; 200.0 µM
Measured log10 solubility kinetic by item
log10 solubility kinetic, µg/mL

Guide cases for log10 solubility kinetic, answers given:
molecule	recorded measurement
CC(C)N(CC(N)=O)C(=O)c1sc2cc(F)ccc2c1Cl	1.65
Cc1ccsc1CN(C)C(=O)c1ccc(Oc2ccccc2)cc1	0.52
C=CCc1cccc2cc(C(=O)Nc3ccc(NC(C)=O)cc3)c(=O)oc12	0.23
COc1cc(/C=C2\SC(N)=NC2=O)cc(Br)c1O	0.23
O=c1c2c([N+](=O)[O-])cc([N+](=O)[O-])cc2nc2ccccn12	0.51

# get_value(readout='log10 solubility kinetic', item= "Cc1ccc(NCCC(=O)c2cccs2)cc1C" )
1.26

# get_value(readout='log10 solubility kinetic', item= "O=C(CCC1CCN(Cc2ccccc2O)CC1)NC1CC1" )
1.63
